biological target: piglet OBP (Sus scrofa, UniProt P81245); construct: made in house; host or cells: Pichia pastoris GS115 (pPIC9, alpha-mating factor secretion signal); experiment: Competitive fluorescent binding assay: displacement of 1-AMA from piglet OBP by odorants IPMP and IBMP; set-up: species or system porcine; conditions: pH 3.0; calculated from IC50; read-out: Kd for piglet OBP
result type: Kd

1) COc1nccnc1CC(C)C [IBMP, 2-isobutyl-3-methoxypyrazine]; 1470 nM
2) COc1nccnc1C(C)C [IPMP, 2-isopropyl-3-methoxypyrazine]; 2340 nM

###

We begin with a simple list: items and their reported pIC50.
biological target: piglet OBP (Sus scrofa); construct: made in house; host or cells: Pichia pastoris GS115 (pPIC9, alpha-mating factor secretion signal); experiment: Competitive fluorescent binding assay: displacement of 1-AMA from piglet OBP by odorants IPMP and IBMP; set-up: species or system porcine; settings: pH 3.0
pIC50: −log10 of the molar value.
result type: pIC50

1. COc1nccnc1CC(C)C; 5.44
2. COc1nccnc1C(C)C; 5.22

###

Molecular target: mouse MUPII (mMUPII), Genbank AJ309921, Uniprot P11589, SEQ ID NO: 5, recombinant (Mus musculus, UniProt P11589)
Construct: no tag mentioned
Sequence (P11589 19-180): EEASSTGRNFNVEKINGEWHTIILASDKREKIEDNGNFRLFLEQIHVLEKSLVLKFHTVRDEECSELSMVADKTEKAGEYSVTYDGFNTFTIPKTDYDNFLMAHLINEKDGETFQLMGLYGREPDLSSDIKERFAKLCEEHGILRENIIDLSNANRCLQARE
Experiment: Competitive displacement of 1-AMA, mouse MUPII
Assay type: binding
Settings: calculated from IC50; pH 3.0; read-out: Kd
result type: Kd (nM)

1. COc1nccnc1CC(C)C [IBMP, 2-isobutyl-3-methoxypyrazine]; 1080

###

Molecular target: mouse MUPII (mMUPII), Genbank AJ309921, Uniprot P11589, SEQ ID NO: 5, recombinant (Mus musculus, UniProt P11589)
Construct: no tag mentioned
Sequence (P11589 19-180): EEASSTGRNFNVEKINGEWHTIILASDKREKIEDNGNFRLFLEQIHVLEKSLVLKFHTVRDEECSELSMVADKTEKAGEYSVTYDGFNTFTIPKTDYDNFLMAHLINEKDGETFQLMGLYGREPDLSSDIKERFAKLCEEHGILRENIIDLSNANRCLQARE
Assay: Competitive displacement of 1-AMA, mouse MUPII
Assay type: binding
Conditions: pH 3.0; read-out: apparent Kd
result type: Kd (µM)

1) COc1nccnc1CC(C)C; 1

###

Target: piglet OBP (Sus scrofa)
Construct: made in house; host or cells: Pichia pastoris GS115 (pPIC9, alpha-mating factor secretion signal)
Sequence (P81245 with tags, fused parts or gaps): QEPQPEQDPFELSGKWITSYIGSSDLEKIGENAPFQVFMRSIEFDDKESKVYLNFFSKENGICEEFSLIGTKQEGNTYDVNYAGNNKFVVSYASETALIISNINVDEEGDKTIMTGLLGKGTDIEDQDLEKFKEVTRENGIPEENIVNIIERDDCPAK
Assay: Competitive fluorescent binding assay: displacement of 1-AMA from piglet OBP by odorants IPMP and IBMP
Parameters: species or system porcine
Details: pH 7.2; read-out: apparent Kd for pIOBP
pKd: −log10 of the molar value.
result type: pKd

1. COc1nccnc1C(C)C [IPMP, 2-isopropyl-3-methoxypyrazine]; 5.35
